- assayTarget: CCXCKR2 receptor (Homo sapiens, UniProt P25106)
- Construct: expressed in transfected cells; host or cells: MDA-MB-435S transfected with pcDNA3.1(+)-hRDC1 and/or MCF-7 (endogenous receptor)
- Sequence (P25106 whole entry): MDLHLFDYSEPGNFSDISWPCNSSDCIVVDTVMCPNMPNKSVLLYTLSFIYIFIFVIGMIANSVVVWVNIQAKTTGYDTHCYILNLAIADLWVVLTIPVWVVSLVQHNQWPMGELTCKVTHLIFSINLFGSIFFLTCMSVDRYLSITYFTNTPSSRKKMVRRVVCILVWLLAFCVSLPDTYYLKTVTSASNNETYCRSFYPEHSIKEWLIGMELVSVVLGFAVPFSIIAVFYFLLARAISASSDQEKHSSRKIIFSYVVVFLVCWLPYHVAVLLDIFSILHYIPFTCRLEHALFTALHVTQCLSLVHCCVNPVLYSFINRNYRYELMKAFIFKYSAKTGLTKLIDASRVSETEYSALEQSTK
- protocolSummary: Displacement of 125I-labeled SDF-1 from the CCXCKR2 receptor on MCF-7 and/or CCXCKR2-transfected MDA-MB-435S cells (radioligand binding, filtration)
- conditionNotes: 125I SDF-1, 3 hr at 4° C., MCF-7 and/or MDA-MB-435S cells; read-out: Activity (concentration displacing at least 50% of the SDF-1 from the CCXCKR2 receptor)
pIC50: −log10 of the molar value.
Recorded pIC50, one value per entry.

[[record]]
chemicalsmiles = "Cc1ccc(C(=O)c2cn(Cc3c(C)cccc3C)c3ccccc3c2=O)cc1C"
obsvalue = "4.70 to 6.30"

[[record]]
chemicalsmiles = "Cc1ccc(C(=O)c2cn(Cc3cccc(C)n3)c3ccccc3c2=O)nc1"
obsvalue = "4.70 to 6.30"

[[record]]
chemicalsmiles = "COc1cccc(C(=O)c2cn(Cc3cccc(Br)n3)c3ccccc3c2=O)c1"
obsvalue = "> 7.00"

[[record]]
chemicalsmiles = "Cc1ccc(C(=O)c2cn(Cc3cccc(N4CCOCC4)n3)c3ccccc3c2=O)cc1C"
obsvalue = "6.30 to 7.00"


Q) Look at this molecule and give its reported pIC50. Cc1cccc(Cn2cc(C(=O)c3ccc(C(F)(F)F)nc3)c(=O)c3ccccc32)n1
A) 6.30 to 7.00

Q) Look at this molecule and give its reported pIC50. Cc1cccc(Cn2cc(C(=O)c3ccccc3N3CCOCC3)c(=O)c3ccccc32)n1
A) > 7.00
